Source of measurements: the array DNA melting data of Ke et al. (doi:10.1101/2024.01.08.574731)

Attribute: folding enthalpy
# methodNotes: folding enthalpy; higher = less favourable; fluorescence melt of hairpins on a sequencing array, two-state fit
# conditionLabel: sodium 0.088 M

Here is how some sequences turned out for folding enthalpy.
INSERT INTO results (biopolymersequence, valuekind, testresult) VALUES
  ('GCTCGGCGAAAGCCCAGC (((.(((....))).)))', 'folding enthalpy', '-42.5 kcal/mol'),
  ('GCGTGGTACGC ((((...))))', 'folding enthalpy', '-20.5 kcal/mol'),
  ('GATCCGAAACCGGATC ((((((....))))))', 'folding enthalpy', '-38 kcal/mol');

Prompt: What value of measured folding enthalpy is listed for GTACGCCCGAAAGGGTAC (((..(((....)))))) ?
Response: -11.4 kcal/mol

Prompt: Next up: GGGTGACGAAAGTCTCCC (((.(((....))).)))
Response: -36.2 kcal/mol

Prompt: Can you handle GAATGCGCGAAAGCGTTC (((..(((....)))))) next?
Response: -8.39 kcal/mol

Prompt: Entry to check: GACGCCGAAAGGCCGTC ((((((....))).)))
Response: -18.7 kcal/mol

* * *

# methodNotes: folding enthalpy; higher = less favourable; fluorescence melt of hairpins on a sequencing array, two-state fit
# conditionLabel: sodium 0.088 M
valueKind: folding enthalpy (kcal/mol)
Give the number; kcal/mol is assumed, so skip it.

Guide cases for folding enthalpy, answers given:
INSERT INTO assay_data (biopolymersequence, valuekind, testresult) VALUES
  ('GCCCTCTCGAAAGAGGGC (((..(((....))))))', 'folding enthalpy', -40.5),
  ('GACATAGCGAAAGCTGTC (((..(((....))))))', 'folding enthalpy', -20.5),
  ('GACTGAGGAAACTTAGTC ((((.((....)).))))', 'folding enthalpy', -26.3);

Prompt: Request the reported folding enthalpy associated with GCCGCATCGAAAGATGGC (((..(((....))))))
Response: -11.4

Prompt: Continue with GCATGAGGAAACTTGTGC (((..((....))..)))
Response: -26.6

* * *

# methodNotes: folding enthalpy; higher = less favourable; fluorescence melt of hairpins on a sequencing array, two-state fit
# conditionLabel: sodium 0.088 M
valueKind: folding enthalpy

INSERT INTO measurements (biopolymersequence, testresult) VALUES
  ('GATCCGGCCACGGATC ((((((....))))))', '-41.6 kcal/mol'),
  ('GCACGTCGAAAGACTTGC (((.(((....))).)))', '-40.6 kcal/mol'),
  ('GCTAGGCGAAAGCCACGC ((..(((....)))..))', '-14.3 kcal/mol'),
  ('GATCAAAATTTTGATC ((((((....))))))', '-40.1 kcal/mol');

Prompt: Name the recorded folding enthalpy for GGCTTGTCGAAAGACGCC (((..(((....)))))) .
Response: -18.5 kcal/mol

Prompt: Would you kindly repeat that for GATGCGGGAAACCGTATC (((.(((....))).))) ?
Response: -34.4 kcal/mol

* * *

# methodNotes: folding enthalpy; higher = less favourable; fluorescence melt of hairpins on a sequencing array, two-state fit
# conditionLabel: sodium 0.088 M
Answer not satisfied if folding enthalpy is under -30 kcal/mol, and satisfied if it is -30 kcal/mol or more.

Consider the following illustrative entries.
INSERT INTO assay_data (biopolymersequence, group) VALUES
  ('GATCACGGAAACGTGACC (.(((((....))))).)', 'satisfied'),
  ('GCTTTCCGAAAGGAGAGC (((.(((....))).)))', 'not satisfied');

Prompt: Could you verify whether the entry GATCAACAGTTGATC ((((((...)))))) shows folding enthalpy of no less than -30 kcal/mol?
Response: not satisfied

Prompt: GTTTAGACGAAAGTCAAC (((..(((....)))))) ?
Response: satisfied

Prompt: What do we get for GCTCACCGAAAGGTTAGC (((.(((....))).))) ?
Response: not satisfied

Prompt: Another: GGACGGGGAAACTCGTCC (((((.(....).)))))
Response: not satisfied

Prompt: Also need GGCCCGACGAAAGTCGCC (((..(((....)))))) , thanks.
Response: satisfied

Prompt: Same again, this time with GGTCTGCGAAAGCAACC (((.(((....))))))
Response: satisfied

Prompt: Now the sequence GAACCCGAAAGGGGGTTC ((((((....)))..)))
Response: satisfied

Prompt: Next entry: GATGAAGGAAACTTCGTC ((.((((....)))).))
Response: satisfied

Prompt: Entry GGGTGCGAAAGCACTCCC ((((((....)))..))) please
Response: satisfied

Prompt: Record: TCGTTGAAAAACGA (((((....)))))
Response: satisfied

Prompt: // same read-out, input: GTCGGAACGAAAGTTGAC (((..(((....))))))
Response: satisfied

Prompt: Also GCCGAGCGAAAGCTTTGC ((..(((....)))..)) , if possible.
Response: satisfied

Prompt: Now try GAATACCGAAAGGTCTTC (((.(((....))).))) .
Response: satisfied

Prompt: Now try GGTAGAGGAAACTCTATC (.(((((....))))).) .
Response: satisfied

Prompt: Entry GATCCGAGGACGGATC ((((((....)))))) please
Response: not satisfied
